# System: DU-145 prostate
# Experimental details: NCI tumour cell line growth inhibition, 48 h
Measured TGI of individual entries

Compound	Subject of test	TGI
CCOP(=O)(OCC)C(N)c1ccc(Cl)cc1 (stereo not given)	DU-145 prostate	> 100 µM
Cc1cc(S(=O)(=O)Nc2nc(N)nc(N(C)C)n2)c(SCC(=O)O)cc1Cl	DU-145 prostate	> 10 µM
Cc1ccc(/C(O)=C/c2nc3ccccc3s/c2=N/CS(=O)(=O)c2ccc(C)cc2)cc1	DU-145 prostate	> 10 µM
O=Cc1ccc(-c2ccc(-c3nc4ccccc4o3)cc2)o1	DU-145 prostate	> 100 µM
COc1ccc(N2C=Nn3c(nc4sc5c(c4c3=O)CCCC5)C2)cc1	DU-145 prostate	> 100 µM
O=C(Cc1ccccc1)Nn1c(-c2ccccc2)nc2ccccc2c1=O	DU-145 prostate	> 100 µM
Cc1c2c(OCCN3CCCCC3)nn(C)c(=O)c2c(C)n1-c1ccccc1	DU-145 prostate	> 100 µM
O=C(Nc1ccc(-n2ccc3c(NC(=O)c4ccccc4)ncnc32)cc1)Nc1cccc(Cl)c1Cl	DU-145 prostate	3.85 µM
Cc1cccc(C)c1NC(=O)Nc1ccc(S(N)(=O)=O)cc1	DU-145 prostate	> 100 µM
COc1ccc(N2C(=O)C3c4[nH]c5ccc(F)cc5c4C4CCC(c5ccccc5)CC4C3C2=O)cc1 (stereo not given)	DU-145 prostate	> 100 µM
CNC(=O)Cc1nc(-c2cccc(NS(=O)(=O)c3c(F)cccc3F)c2F)c(-c2ccnc(Nc3ccccc3)n2)s1	DU-145 prostate	> 50 µM
Cn1c2ccc(Br)cc2c2c3c(c4c5ccccc5[nH]c4c21)C(=O)N(O)C3=O	DU-145 prostate	0.57 µM
COc1cc(-c2nc(-c3nc4ccccc4[nH]3)cc3c2[nH]c2ccccc23)cc(OC)c1OC	DU-145 prostate	> 100 µM
CCN(CC)CCCC(C)N=C(C1=C(C(=NC(C)CCCN(CC)CC)c2cccc(OC)c2)C(=O)NC1=O)c1cccc(OC)c1 (stereo not given)	DU-145 prostate	5.03 µM
CC(C)(C)[Si](C)(C)OC1[C@@H](O[Si](C)(C)C(C)(C)C)[C@@H](CNC(=O)NC(=O)CCl)O[C@H]1n1cnc2c(NC(=O)Nc3ccccc3)ncnc21 (stereo not given in full)	DU-145 prostate	5.32 µM
COc1c(O)cc2c(c1O)C(=O)/C(=C/c1ccc(O)cc1)CO2	DU-145 prostate	78.1 µM
O=CC12C3CCC1C2C(=O)C3 (stereo not given)	DU-145 prostate	> 100 µM
CCOC(=O)c1sc2[n+](c1C)C(=O)/C(=C/c1ccc([N+](=O)[O-])cc1)S2	DU-145 prostate	92.3 µM
S=C(c1c[nH]c2ccccc12)N1CCN(Cc2ccccc2)CC1	DU-145 prostate	> 100 µM
COc1ccc2cc(CN3CCC(C4CCNCC4)CC3)ccc2c1	DU-145 prostate	15 µM
